Field: CYP3A4 Induction percentage relative to positive control (%). Provide a value for each of the molecules that follow.
- Test system: CYP3A4
- assayComment: Induction of CYP3A4 in frozen human hepatocytes
- Type: in vitro ADME
- studyConditions: 72 h induction, positive control Rifampicin, concentration and readout not stated
Give bare numbers, in %.

molecule	unitDescriptor	experimentalValue
CCCCN(C)Cc1c[nH]c(=O)cc1-c1cnc2c(N[C@@](C)(CO)CCCC)nc(N)nc2c1	%	2.0

Batch: CYP3A4 Induction percentage relative to positive control (%) for all items listed.
1. C=CCCN(C)Cc1c[nH]c(=O)cc1-c1ccc2c(N[C@@](C)(CO)CCCC)nc(N)nc2c1
2. CCCC[C@](C)(CO)Nc1nc(N)nc2cc(F)cnc12 [Comparative compounds, reference compound]
3. CCCC[C@](C)(CO)Nc1nc(N)nc2cc(-c3cc(=O)n(C)cc3CN3CCCCC3)ccc12
4. C=CCCN(C)Cc1c[nH]c(=O)cc1-c1cnc2c(N[C@@](C)(CO)CCCC)nc(N)nc2c1

1: 0.9; 2: 15.8; 3: −1.5; 4: 2.0

Quick one: CYP3A4 Induction percentage relative to positive control (%) of CCCC[C@](C)(CO)Nc1nc(N)nc2cc(-c3cc(=O)[nH]cc3CN(C)CCOC)cnc12 ?
1.5
